Biological target: MD-2 (UniProt Q9JHF9)
Sequence (Q9JHF9 1-160): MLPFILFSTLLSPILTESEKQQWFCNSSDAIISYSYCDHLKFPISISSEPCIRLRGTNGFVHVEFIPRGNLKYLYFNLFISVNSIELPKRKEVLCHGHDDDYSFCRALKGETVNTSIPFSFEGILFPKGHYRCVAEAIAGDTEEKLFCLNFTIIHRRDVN
property name: pKd
Note on units: pKd is unitless, being -log10 of a concentration expressed in mol/L.

MD-2 (UniProt Q9JHF9) pKd of CC(C)(C)OC(=O)[C@H](CCc1ccccc1)NC(=O)c1ccc(N)c(CCc2ccc(O)cc2)c1 [neoseptin-3] is 4.93
